- ASSAY_PROTOCOL: Cereulide in organs and tissues, SIDA-MS
- Assay type: in vivo, pig
- DETAILS: pig, subcutaneous fat, 150 ug/kg; single oral dose 150 μg kg^-1, necropsy after 48 h, SIDA-MS; read-out: Cereulide concentration in subcutaneous fat, average
ATTRIBUTE_MEASURED: tissue level at time at 48 h

[
  {
    "MOLECULE": "CC(C)C[C@H]1OC(=O)[C@H](C(C)C)NC(=O)[C@H](C(C)C)OC(=O)[C@@H](C)NC(=O)[C@@H](CC(C)C)OC(=O)[C@H](C(C)C)NC(=O)[C@H](C(C)C)OC(=O)[C@@H](C)NC(=O)[C@@H](CC(C)C)OC(=O)[C@H](C(C)C)NC(=O)[C@H](C(C)C)OC(=O)[C@@H](C)NC1=O [cereulide]",
    "ENDPOINT_VALUE": "0.74 ng/g"
  }
]

----------
- ASSAY_PROTOCOL: Cereulide in organs and tissues, SIDA-MS
- Assay type: in vivo, pig
- DETAILS: pig, liver, 10 ug/kg; daily oral dose 10 μg kg^-1 for 7 days, SIDA-MS; read-out: Cereulide concentration in liver, average

[
  {
    "COMPOUND": "CC(C)C[C@H]1OC(=O)[C@H](C(C)C)NC(=O)[C@H](C(C)C)OC(=O)[C@@H](C)NC(=O)[C@@H](CC(C)C)OC(=O)[C@H](C(C)C)NC(=O)[C@H](C(C)C)OC(=O)[C@@H](C)NC(=O)[C@@H](CC(C)C)OC(=O)[C@H](C(C)C)NC(=O)[C@H](C(C)C)OC(=O)[C@@H](C)NC1=O [cereulide]",
    "UNIT_ANNOTATION": "ng/g",
    "tissue level at time at 168 h": 0.14
  }
]

----------
- ASSAY_PROTOCOL: Cereulide in organs and tissues, SIDA-MS
- Assay type: in vivo, pig
- DETAILS: pig, large intestine, 10 ug/kg; daily oral dose 10 μg kg^-1 for 7 days, SIDA-MS; read-out: Cereulide concentration in large intestine, average
ATTRIBUTE_MEASURED: tissue level at time at 168 h (ng/g)

[
  {
    "MOLECULE": "CC(C)C[C@H]1OC(=O)[C@H](C(C)C)NC(=O)[C@H](C(C)C)OC(=O)[C@@H](C)NC(=O)[C@@H](CC(C)C)OC(=O)[C@H](C(C)C)NC(=O)[C@H](C(C)C)OC(=O)[C@@H](C)NC(=O)[C@@H](CC(C)C)OC(=O)[C@H](C(C)C)NC(=O)[C@H](C(C)C)OC(=O)[C@@H](C)NC1=O [cereulide]",
    "ATTRIBUTE_MEASURED": "tissue level at time at 168 h",
    "UNIT_ANNOTATION": "ng/g",
    "ENDPOINT_VALUE": 3.11
  }
]

----------
- ASSAY_PROTOCOL: Cereulide in organs and tissues, SIDA-MS
- Type: in vivo, pig
- DETAILS: pig, large intestine, 150 ug/kg; single oral dose 150 μg kg^-1, necropsy after 48 h, SIDA-MS; read-out: Cereulide concentration in large intestine, average
ATTRIBUTE_MEASURED: tissue level at time at 48 h (ng/g)

[
  {
    "COMPOUND": "CC(C)C[C@H]1OC(=O)[C@H](C(C)C)NC(=O)[C@H](C(C)C)OC(=O)[C@@H](C)NC(=O)[C@@H](CC(C)C)OC(=O)[C@H](C(C)C)NC(=O)[C@H](C(C)C)OC(=O)[C@@H](C)NC(=O)[C@@H](CC(C)C)OC(=O)[C@H](C(C)C)NC(=O)[C@H](C(C)C)OC(=O)[C@@H](C)NC1=O [cereulide]",
    "ATTRIBUTE_MEASURED": "tissue level at time at 48 h",
    "ENDPOINT_VALUE": 30.5
  }
]

----------
- ASSAY_PROTOCOL: Cereulide in organs and tissues, SIDA-MS
- Format: in vivo, pig
- DETAILS: pig, brain, 150 ug/kg; single oral dose 150 μg kg^-1, necropsy after 48 h, SIDA-MS; read-out: Cereulide concentration in brain, average

[
  {
    "COMPOUND": "CC(C)C[C@H]1OC(=O)[C@H](C(C)C)NC(=O)[C@H](C(C)C)OC(=O)[C@@H](C)NC(=O)[C@@H](CC(C)C)OC(=O)[C@H](C(C)C)NC(=O)[C@H](C(C)C)OC(=O)[C@@H](C)NC(=O)[C@@H](CC(C)C)OC(=O)[C@H](C(C)C)NC(=O)[C@H](C(C)C)OC(=O)[C@@H](C)NC1=O [cereulide]",
    "UNIT_ANNOTATION": "ng/g",
    "tissue level at time at 48 h": 0.73
  }
]

----------
- ASSAY_PROTOCOL: Cereulide in organs and tissues, SIDA-MS
- Assay type: in vivo, pig
- DETAILS: pig, abdominal fat, 150 ug/kg; single oral dose 150 μg kg^-1, necropsy after 48 h, SIDA-MS; read-out: Cereulide concentration in abdominal fat, average

[
  {
    "MOLECULE": "CC(C)C[C@H]1OC(=O)[C@H](C(C)C)NC(=O)[C@H](C(C)C)OC(=O)[C@@H](C)NC(=O)[C@@H](CC(C)C)OC(=O)[C@H](C(C)C)NC(=O)[C@H](C(C)C)OC(=O)[C@@H](C)NC(=O)[C@@H](CC(C)C)OC(=O)[C@H](C(C)C)NC(=O)[C@H](C(C)C)OC(=O)[C@@H](C)NC1=O [cereulide]",
    "tissue level at time at 48 h / ng/g": 7.88
  }
]

----------
- ASSAY_PROTOCOL: Cereulide in organs and tissues, SIDA-MS
- Assay type: in vivo, pig
- DETAILS: pig, kidney, 10 ug/kg; daily oral dose 10 μg kg^-1 for 7 days, SIDA-MS; read-out: Cereulide concentration in kidney, average
ATTRIBUTE_MEASURED: tissue level at time at 168 h (ng/g)

[
  {
    "MOLECULE": "CC(C)C[C@H]1OC(=O)[C@H](C(C)C)NC(=O)[C@H](C(C)C)OC(=O)[C@@H](C)NC(=O)[C@@H](CC(C)C)OC(=O)[C@H](C(C)C)NC(=O)[C@H](C(C)C)OC(=O)[C@@H](C)NC(=O)[C@@H](CC(C)C)OC(=O)[C@H](C(C)C)NC(=O)[C@H](C(C)C)OC(=O)[C@@H](C)NC1=O [cereulide]",
    "ENDPOINT_VALUE": 0.25
  }
]

----------
- ASSAY_PROTOCOL: Cereulide in organs and tissues, SIDA-MS
- Assay type: in vivo, pig
- DETAILS: pig, spleen, 10 ug/kg; daily oral dose 10 μg kg^-1 for 7 days, SIDA-MS; read-out: Cereulide concentration in spleen, average

[
  {
    "COMPOUND": "CC(C)C[C@H]1OC(=O)[C@H](C(C)C)NC(=O)[C@H](C(C)C)OC(=O)[C@@H](C)NC(=O)[C@@H](CC(C)C)OC(=O)[C@H](C(C)C)NC(=O)[C@H](C(C)C)OC(=O)[C@@H](C)NC(=O)[C@@H](CC(C)C)OC(=O)[C@H](C(C)C)NC(=O)[C@H](C(C)C)OC(=O)[C@@H](C)NC1=O [cereulide]",
    "tissue level at time at 168 h": "0.15 ng/g"
  }
]

----------
- ASSAY_PROTOCOL: Cereulide in organs and tissues, SIDA-MS
- Type: in vivo, pig
- DETAILS: pig, muscle, 150 ug/kg; single oral dose 150 μg kg^-1, necropsy after 48 h, SIDA-MS; read-out: Cereulide concentration in muscle, average
ATTRIBUTE_MEASURED: tissue level at time at 48 h (ng/g)

[
  {
    "COMPOUND": "CC(C)C[C@H]1OC(=O)[C@H](C(C)C)NC(=O)[C@H](C(C)C)OC(=O)[C@@H](C)NC(=O)[C@@H](CC(C)C)OC(=O)[C@H](C(C)C)NC(=O)[C@H](C(C)C)OC(=O)[C@@H](C)NC(=O)[C@@H](CC(C)C)OC(=O)[C@H](C(C)C)NC(=O)[C@H](C(C)C)OC(=O)[C@@H](C)NC1=O [cereulide]",
    "ATTRIBUTE_MEASURED": "tissue level at time at 48 h",
    "ENDPOINT_VALUE": 0.39
  }
]

----------
- ASSAY_PROTOCOL: Cereulide in organs and tissues, SIDA-MS
- Format: in vivo, pig
- DETAILS: pig, spleen, 150 ug/kg; single oral dose 150 μg kg^-1, necropsy after 48 h, SIDA-MS; read-out: Cereulide concentration in spleen, average

[
  {
    "MOLECULE": "CC(C)C[C@H]1OC(=O)[C@H](C(C)C)NC(=O)[C@H](C(C)C)OC(=O)[C@@H](C)NC(=O)[C@@H](CC(C)C)OC(=O)[C@H](C(C)C)NC(=O)[C@H](C(C)C)OC(=O)[C@@H](C)NC(=O)[C@@H](CC(C)C)OC(=O)[C@H](C(C)C)NC(=O)[C@H](C(C)C)OC(=O)[C@@H](C)NC1=O [cereulide]",
    "tissue level at time at 48 h / ng/g": 2.26
  }
]
